biological target: human recombinant P2X7 receptors (Homo sapiens); construct: expressed in transfected cells; assay: Ethidium Accumulation Assay 2 (HEK293 cells, ATP-induced ethidium uptake); type: cell-based; details: HEK293 cells expressing human P2X7; sometimes mean of more than one measurement; read-out: Assay 2 (antagonist pIC50 for blocking ATP responses) (converted)
Sequence (Q99572 whole entry): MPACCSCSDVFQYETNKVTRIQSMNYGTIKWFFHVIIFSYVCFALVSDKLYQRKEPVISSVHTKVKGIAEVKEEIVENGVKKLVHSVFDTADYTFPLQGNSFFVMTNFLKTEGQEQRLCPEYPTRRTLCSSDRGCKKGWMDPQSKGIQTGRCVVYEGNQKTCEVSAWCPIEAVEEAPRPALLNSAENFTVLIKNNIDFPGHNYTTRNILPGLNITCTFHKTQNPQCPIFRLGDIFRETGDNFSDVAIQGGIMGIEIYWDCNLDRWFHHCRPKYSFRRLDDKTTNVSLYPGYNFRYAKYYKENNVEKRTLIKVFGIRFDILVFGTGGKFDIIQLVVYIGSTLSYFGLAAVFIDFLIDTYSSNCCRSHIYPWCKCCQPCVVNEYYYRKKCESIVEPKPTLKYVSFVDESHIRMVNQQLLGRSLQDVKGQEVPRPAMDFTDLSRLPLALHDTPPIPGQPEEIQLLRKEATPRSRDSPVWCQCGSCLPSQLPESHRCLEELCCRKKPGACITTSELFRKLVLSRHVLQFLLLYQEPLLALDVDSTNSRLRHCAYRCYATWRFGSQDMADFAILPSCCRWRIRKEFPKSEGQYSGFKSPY
observed.property: IC50

Consider the reported IC50 for these compounds:
O=C(c1ccc(F)c(Cl)c1Cl)N1CCn2c(nnc2-c2ncns2)C1 : < 10 nM
COc1cccc(-c2nnc3n2CCN(C(=O)c2ccc(Cl)c(F)c2Cl)C3)n1 : < 100 nM
[2H]c1ccc(-c2nnc3n2CCN(C(=O)c2ccc(Cl)c(F)c2Cl)C3)nc1 : < 10 nM
O=C(c1ccc(Cl)cc1Cl)N1CCn2c(nnc2-c2ccno2)C1 : < 501 nM
O=C(c1ccc(F)c(Cl)c1Cl)N1CCn2c(nnc2-c2cccnn2)C1 : < 100 nM
O=C(c1cccc(C(F)(F)F)c1Cl)N1CCn2c(nnc2-c2ncccc2O)C1 : < 10 nM

Data request, read-out IC50, for `Cc1c(Cl)ccc(C(=O)N2CCn3c(nnc3-c3cnccn3)C2)c1Cl` < 10 nM

Data request, read-out IC50, for `Cc1ccc(C(=O)N2CCn3c(nnc3-c3cnccn3)C2)c(C(F)(F)F)c1` < 501 nM

Data request, read-out IC50, for `Cc1ccc(C(=O)N2CCn3c(nnc3-c3cnccn3)C2)c(Cl)c1Cl` < 10 nM
